Entries annotated with measured pIC50
biological target: Human autotaxin enzyme (Homo sapiens); construct: purchased R&D System; experiment: Evaluation of autotaxin inhibitor, Method B (Test Example 2): TG-mTMP fluorescence; format: biochemical; conditions: Assay Method B (Test Example 2), human autotaxin; read-out: Inhibitory Activity (autotaxin enzyme inhibitory activity, IC50 class)
pIC50: −log10 of the molar value.

CCCCCn1c(C)cc(=O)n2cc(-c3ccsc3)nc12 [Compound 144] = 6.00 to 7.00

Task: For Cc1cc(=O)n2cc(-c3ccc(Cl)cc3)nc2n1Cc1ccc(-c2ccccc2)cc1 [Compound 88] , what is its reported pIC50?
Result: 6.00 to 7.00

Task: And CCCCCn1c(NCc2nccs2)cc(=O)n2cc(-c3ccc(Cl)cc3)nc12 [Compound 233] ?
Result: 7.00 to 8.00

Task: And CCCCCn1c(N2CCN(CCN3CCOCC3)CC2)cc(=O)n2cc(-c3ccc(Cl)cc3)nc12 [Compound 191] ?
Result: > 8.00

====

Entries annotated with measured IC50
target: Human autotaxin enzyme (Homo sapiens); construct: purchased R&D System; experiment: Evaluation of autotaxin inhibitor, Method C (Test Example 3): 18:0 Lyso PC, choline assay, Resorufin fluorescence; type: biochemical; conditions: Assay Method C (Test Example 3), human autotaxin, 18:0 Lyso PC substrate; read-out: Inhibitory Activity (autotaxin enzyme inhibitory activity, IC50 class)

Worked cases, answers included:
CCCCCn1c(N2CCN(C(=O)OC(C)(C)C)C[C@H]2C(=O)NCCC(=O)O)cc(=O)n2cc(-c3ccc(Cl)cc3)nc12 [Compound 620] = < 10 nM
CCCCCn1c(N2CCC[C@H]2C(=O)NC2CCCCNC2=O)cc(=O)n2cc(-c3ccc(Cl)cc3)nc12 (some centres unmarked) [Compound 694] = 10 to 100 nM
CCCCCn1c(N2CC=CC2)cc(=O)n2cc(-c3ccc(Cl)cc3)nc12 [Compound 309] = 10 to 100 nM
CCCCCn1c(N2CCN(C(=O)OC(C)(C)C)C[C@@H]2C(=O)NCC(=O)O)cc(=O)n2cc(-c3ccc(Cl)cc3)nc12 [Compound 631] = 100 to 1000 nM
CCCCCn1c(OC2CCNCC2)cc(=O)n2cc(-c3ccc(Cl)cc3)nc12 [Compound 538] = 100 to 1000 nM

Task: For CCCCCn1c(N2CCC[C@H]2C(=O)N2CCCC2C(=O)O)cc(=O)n2cc(-c3ccc(Cl)cc3)nc12 (some centres unmarked) [Compound 349] , what is its reported IC50?
Result: < 10 nM

Task: And CCCCCn1c(N2CCC3CNCC32)cc(=O)n2cc(-c3ccc(Cl)cc3)nc12 (centres unmarked) [Compound 329] ?
Result: 100 to 1000 nM

Task: And CCCCCn1c(N2C[C@@H](F)C[C@H]2C(=O)O)cc(=O)n2cc(-c3ccc(Cl)cc3)nc12 [Compound 588] ?
Result: 100 to 1000 nM

Task: And CCCCCn1c(-c2ccc(C(=O)N(CCO)CCO)cc2)cc(=O)n2cc(-c3ccc(Cl)cc3)nc12 [Compound 467] ?
Result: 10 to 100 nM

Task: And CCCCCn1c(N2CCC[C@H]2C(=O)NCCC(=O)OC)cc(=O)n2cc(-c3ccc(Cl)cc3)nc12 [Compound 340] ?
Result: 10 to 100 nM

Task: And CCCCCn1c(-c2ccc(C(=O)NC)cc2)cc(=O)n2cc(-c3ccc(Cl)cc3)nc12 [Compound 495] ?
Result: 10 to 100 nM
